# system-under-test: ΔF508-CFTR (Homo sapiens, UniProt P13569, DEL508-508)
# Construct: host or cells: CFBE41o-, doxycycline-inducible
# Sequence (P13569 with tags, fused parts or gaps DEL508-508): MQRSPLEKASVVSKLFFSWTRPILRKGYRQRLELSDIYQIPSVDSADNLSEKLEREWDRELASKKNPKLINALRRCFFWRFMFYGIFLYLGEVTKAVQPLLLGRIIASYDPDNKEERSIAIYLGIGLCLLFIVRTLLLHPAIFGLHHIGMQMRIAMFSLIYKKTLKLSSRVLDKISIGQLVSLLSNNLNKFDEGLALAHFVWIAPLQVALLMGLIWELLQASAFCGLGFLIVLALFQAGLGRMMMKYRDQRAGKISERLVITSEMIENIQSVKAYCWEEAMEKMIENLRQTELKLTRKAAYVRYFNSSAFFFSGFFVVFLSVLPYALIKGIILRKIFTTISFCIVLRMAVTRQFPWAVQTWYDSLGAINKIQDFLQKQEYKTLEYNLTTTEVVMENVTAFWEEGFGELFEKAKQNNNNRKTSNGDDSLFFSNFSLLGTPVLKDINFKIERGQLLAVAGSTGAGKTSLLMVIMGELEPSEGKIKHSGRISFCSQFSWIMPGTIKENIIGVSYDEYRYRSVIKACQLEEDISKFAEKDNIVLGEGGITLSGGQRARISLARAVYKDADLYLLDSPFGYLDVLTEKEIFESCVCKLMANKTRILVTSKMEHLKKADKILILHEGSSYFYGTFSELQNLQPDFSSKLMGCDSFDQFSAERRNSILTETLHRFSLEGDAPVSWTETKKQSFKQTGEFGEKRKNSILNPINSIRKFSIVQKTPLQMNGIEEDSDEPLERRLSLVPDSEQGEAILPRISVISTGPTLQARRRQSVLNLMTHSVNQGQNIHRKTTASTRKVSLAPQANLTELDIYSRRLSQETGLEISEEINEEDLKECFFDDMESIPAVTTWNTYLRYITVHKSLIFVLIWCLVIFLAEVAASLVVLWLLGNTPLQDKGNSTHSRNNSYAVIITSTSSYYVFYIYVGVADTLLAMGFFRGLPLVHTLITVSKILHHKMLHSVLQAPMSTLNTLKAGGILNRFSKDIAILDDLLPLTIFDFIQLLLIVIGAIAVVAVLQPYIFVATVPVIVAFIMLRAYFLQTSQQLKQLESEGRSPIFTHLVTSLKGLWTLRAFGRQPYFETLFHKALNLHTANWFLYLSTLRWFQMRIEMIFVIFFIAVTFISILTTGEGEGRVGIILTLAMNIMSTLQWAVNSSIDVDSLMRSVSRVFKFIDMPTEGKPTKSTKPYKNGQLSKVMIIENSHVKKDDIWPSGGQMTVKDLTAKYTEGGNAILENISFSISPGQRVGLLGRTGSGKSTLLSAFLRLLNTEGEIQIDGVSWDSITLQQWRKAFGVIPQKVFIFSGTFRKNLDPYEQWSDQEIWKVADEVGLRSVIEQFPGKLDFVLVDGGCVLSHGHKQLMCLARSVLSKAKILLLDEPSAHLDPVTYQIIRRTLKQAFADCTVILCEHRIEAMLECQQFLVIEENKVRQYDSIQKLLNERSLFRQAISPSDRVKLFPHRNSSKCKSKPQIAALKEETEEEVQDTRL
# measurement-notes: CFTR cell surface levels using HRP-tagged ΔF508-CFTR expressing CFBE cells, in the presence of a co-corrector
# Assay type: cell-based
# test-parameters: HRP-tagged ΔF508-CFTR expressing CFBE cells, in the presence of 3 μM co-corrector
reported-property: % Activation (%)
State just the number; it will be interpreted in %.

Use the examples below as a reference point.
Prompt: Name the recorded % Activation of the compound listed here: O=C(O)c1cc(N2CCCCC2)c2c(C3CCC3)nn(-c3ccccc3)c2n1
Response: 346.95

Prompt: Name the recorded % Activation of the compound listed here: CO[C@H]1C[C@@H](c2nn(-c3ccccc3)c3nc(C(=O)O)cc(-c4ccc(N5CCC(C#N)CC5)nc4)c32)C1
Response: 368.65

Prompt: Name the recorded % Activation of the compound listed here: O=C(O)c1cc(N2C[C@@H](F)C[C@H]2CO)c2c(C3CCC3)nn(-c3ccccc3)c2n1
Response: 218.3

Prompt: Name the recorded % Activation of the compound listed here: CN1CCC[C@]12C[C@@H](Oc1cc(C(=O)O)nc3c1c(C1CCC1)nn3-c1ccccc1)C2
Response: 270.05

Prompt: Name the recorded % Activation of the compound listed here: CCN1CCN(c2cc(C(=O)O)nc3c2c(C(C)C)nn3-c2ccc(F)cc2)CC1
Response: 226.6

Further cases:
Prompt: Name the recorded % Activation of the compound listed here: CN(C)C(=O)C1(N2CCCC2=O)CCN(c2cc(C(=O)O)nc3c2c(C2CCC2)nn3-c2ccccc2)CC1
Response: 209.8

Prompt: Name the recorded % Activation of the compound listed here: O=C(O)c1cc(N2CCCN(CC3CCCO3)CC2)c2c(C3CCC3)nn(-c3ccccc3)c2n1 (stereo not drawn)
Response: 330.8

Prompt: Name the recorded % Activation of the compound listed here: O=C(O)c1cc(N2CCN(CC(=O)N3CCOCC3)CC2)c2c(C3CCC3)nn(-c3ccccc3)c2n1
Response: 301.35

Prompt: Name the recorded % Activation of the compound listed here: Cc1nn(-c2ccccc2)c2nc(C(=O)O)cc(N3CC[C@H](F)C3)c12
Response: 165

Prompt: Name the recorded % Activation of the compound listed here: CC(C)c1nn(-c2cccc(N3CCOCC3)c2)c2nc(C(=O)O)cc(-c3ccc(N4CCOCC4)cc3)c12
Response: 603.1

Prompt: Name the recorded % Activation of the compound listed here: CN(C)C(=O)N1CCN(c2cc(C(=O)O)nc3c2c(C2CCC2)nn3-c2ccccc2)CC1
Response: 314.8
